experiment: in vivo; conditions: CD-1, mouse, ip, 20 mg/kg
Outcome Measure: Cmax (ng/mL)

Molecule: C[C@H](CCl)NP(=O)(N[C@H](C)CCl)OCc1cnc([N+](=O)[O-])n1C [Compound 37]
Measurement: 12600

---

test: In vivo plasma or tumor pharmacokinetics of Compound 25 (Table 4); parameters: species or system CD-1 mice (nude mice where noted); conditions: nude, mouse, plasma, ip, 150 mg/kg, 150 mg/kg i.p., Saline, nude mice with H460 tumor

Entry Smiles: Cn1c(COP(=O)(NCCBr)NCCBr)cnc1[N+](=O)[O-]
Cmax, µg/mL: 90.1

---

system: HCT116 cells; test: Multilayered cell culture (MCC) assay, inhibition of BrdU incorporation; format: cell-based; conditions: Homo sapiens, HCT-116, read-out: IC50 (BrdU), Normoxic side, 5% O2
pIC50: −log10 of the molar value.

Compound: Cn1c(COP(=O)(NCCBr)NCCBr)cnc1[N+](=O)[O-] [Compound 25]
Test Target: HCT116 cells
pIC50: 5.10

---

target: CYP3A4 (Homo sapiens, UniProt P08684); assay: in vitro; conditions: pH 7.4, IC50 3A4 Nifedipine, probe substrate nifedipine
Sequence (P08684 whole entry): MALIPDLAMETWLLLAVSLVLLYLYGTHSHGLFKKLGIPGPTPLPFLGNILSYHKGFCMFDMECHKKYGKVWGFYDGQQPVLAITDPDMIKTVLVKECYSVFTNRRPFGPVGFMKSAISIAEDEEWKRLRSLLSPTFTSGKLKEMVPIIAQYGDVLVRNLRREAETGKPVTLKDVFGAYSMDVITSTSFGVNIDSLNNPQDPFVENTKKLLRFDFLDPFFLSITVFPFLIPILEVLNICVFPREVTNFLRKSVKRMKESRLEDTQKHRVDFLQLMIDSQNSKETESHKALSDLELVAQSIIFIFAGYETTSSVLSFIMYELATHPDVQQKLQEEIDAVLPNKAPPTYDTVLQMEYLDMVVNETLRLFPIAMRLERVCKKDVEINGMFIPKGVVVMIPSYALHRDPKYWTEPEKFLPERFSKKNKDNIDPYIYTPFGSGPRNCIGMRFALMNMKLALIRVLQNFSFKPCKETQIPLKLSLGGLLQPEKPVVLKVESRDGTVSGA
pIC50: −log10 of the molar value.
Outcome Measure: pIC50

Molecule: Cn1c(COP(=O)(NCCBr)NCCBr)cnc1[N+](=O)[O-] [Compound 25]
Measurement: < 4.30

---

system: H460 cells exposed as monolayers; experiment: Clonogenic survival of monolayer cells (Example 35); conditions: Homo sapiens, NCI-H460, 2 h, read-out: IC90 H460 Monolayer N2
Mark each entry label 1 if its IC90 sits below 1 µM, and label 0 for all others.

Compound: COC(=O)c1cc(C(C)OP(=O)(NCCBr)NCCBr)ccc1OCc1cnc([N+](=O)[O-])n1C (stereo not drawn)
Test Target: H460 cells exposed as monolayers
Label: label 0

Compound: Nc1n[n+]([O-])c2ccccc2[n+]1[O-] [Tirapazamine, reference compound]
Test Target: H460 cells exposed as monolayers
Label: label 0

Compound: O=[N+]([O-])c1ccc(COP(=O)(NCCBr)NCCBr)o1
Test Target: H460 cells exposed as monolayers
Label: label 1

Compound: Cn1c(COP(=O)(NCCBr)NCCBr)cnc1[N+](=O)[O-]
Test Target: H460 cells exposed as monolayers
Label: label 1

Compound: Cn1c(COP(N)(=O)N(CCCl)CCCl)cnc1[N+](=O)[O-] (stereo not drawn)
Test Target: H460 cells exposed as monolayers
Label: label 1

---

Reported MTD by item:
assay: in vivo
Outcome Measure: MTD (mg/kg)

Compound: Cn1c(COP(=O)(NCCCl)NCCCl)cnc1[N+](=O)[O-] [Compound 36]
Measurement: 400
//
Compound: Cn1c(COP(=O)(N(CCCl)C2CC2)N(CCCl)C2CC2)cnc1[N+](=O)[O-] [Compound 7]
Measurement: 250

---

test system: HT29 cells; test: Antiproliferation assay (Alamar Blue), anoxia vs air; conditions: Homo sapiens, HT-29, 2 h, read-out: IC50 HT29 Air
pIC50: −log10 of the molar value.
Outcome Measure: pIC50

Compound: Cn1c(COP(=O)(N(CCCl)C2CC2)N(CCCl)C2CC2)cnc1[N+](=O)[O-]
Outcome Measure: pIC50
Measurement: < 4.00
--
Compound: Cn1c(COP(N)(=O)N(CCCl)CCCl)cnc1[N+](=O)[O-] (stereo not drawn)
Outcome Measure: pIC50
Measurement: < 4.00
--
Compound: Cn1c(COP2(=O)N(CCBr)CCCN2CCBr)cnc1[N+](=O)[O-]
Outcome Measure: pIC50
Measurement: < 4.00

---

assay: In vivo plasma or tumor pharmacokinetics of Compound 25 (Table 4); set-up: species or system CD-1 mice (nude mice where noted); settings: CD-1, mouse, plasma, iv, 50 mg/kg, 50 mg/kg i.v., 30% PEG/70% Saline, CD-1 mice; read-out: Half-life
Outcome Measure: half-life (min)

Entry Smiles: Cn1c(COP(=O)(NCCBr)NCCBr)cnc1[N+](=O)[O-]
Outcome Measure: half-life
Measurement: 6.7

---

experiment: in vivo; conditions: Balb/c, mouse, ip, 50 mg/kg

Compound: Cn1c(COP(N)(=O)N(CCCl)CCCl)cnc1[N+](=O)[O-] (stereo not shown)
Cmax: 29900 ng/mL

---

Reported Metabolic stability (MLM) (% at 30 min) by item:
system: mouse (MLM) liver microsomal proteins; assay type: in vitro ADME; conditions: Table 2B
Outcome Measure: Metabolic stability (MLM) (% at 30 min) (%)

Entry Smiles: Cn1c(COP(=O)(N(CCCl)CCCl)N(CCCl)CCCl)cnc1[N+](=O)[O-]
Test Target: mouse (MLM) liver microsomal proteins
Outcome Measure: Metabolic stability (MLM) (% at 30 min)
Measurement: 0
--
Entry Smiles: CN(CCCl)P(=O)(OCc1cnc([N+](=O)[O-])n1C)N(C)CCCl
Test Target: mouse (MLM) liver microsomal proteins
Outcome Measure: Metabolic stability (MLM) (% at 30 min)
Measurement: 5
--
Entry Smiles: Cn1c(COP2(=O)N(CCCl)CCCN2CCCl)cnc1[N+](=O)[O-]
Test Target: mouse (MLM) liver microsomal proteins
Outcome Measure: Metabolic stability (MLM) (% at 30 min)
Measurement: 40
--
Entry Smiles: O=[N+]([O-])c1ccc(COP(=O)(NCCBr)NCCBr)s1
Test Target: mouse (MLM) liver microsomal proteins
Outcome Measure: Metabolic stability (MLM) (% at 30 min)
Measurement: 28
--
Entry Smiles: O=[N+]([O-])c1ccc(COP(=O)(NCCCl)NCCCl)o1
Test Target: mouse (MLM) liver microsomal proteins
Outcome Measure: Metabolic stability (MLM) (% at 30 min)
Measurement: 71
--
Entry Smiles: O=[N+]([O-])c1ccc(COP(=O)(NCCCl)NCCCl)s1
Test Target: mouse (MLM) liver microsomal proteins
Outcome Measure: Metabolic stability (MLM) (% at 30 min)
Measurement: 56
--
Entry Smiles: Cn1c(COP2(=O)N(CCBr)CCCN2CCBr)cnc1[N+](=O)[O-]
Test Target: mouse (MLM) liver microsomal proteins
Outcome Measure: Metabolic stability (MLM) (% at 30 min)
Measurement: 56
--
Entry Smiles: Cn1c(COP(=O)(N(CCCl)C2CC2)N(CCCl)C2CC2)cnc1[N+](=O)[O-]
Test Target: mouse (MLM) liver microsomal proteins
Outcome Measure: Metabolic stability (MLM) (% at 30 min)
Measurement: 0

---

experiment: in vivo; conditions: CD-1, mouse, iv, 20 mg/kg

Entry Smiles: C[C@H](CCl)NP(=O)(N[C@H](C)CCl)OCc1cnc([N+](=O)[O-])n1C
Tmax: 2 min

---

target: CYP3A4 (Homo sapiens, UniProt P08684); test: in vitro; conditions: pH 7.4, IC50 3A4 Testosterone, probe substrate testosterone
pIC50: −log10 of the molar value.
Outcome Measure: pIC50

Compound: Cn1c(COP(=O)(NCCBr)NCCBr)cnc1[N+](=O)[O-] [Compound 25]
Outcome Measure: pIC50
Measurement: < 4.30

---

system: H460 cell line; assay: Anti-proliferation assay, hypoxia vs normoxia (Table 1A); conditions: Homo sapiens, NCI-H460, read-out: Hypoxia P (proliferation IC50)
pIC50: −log10 of the molar value.
Outcome Measure: pIC50

Molecule: Cn1c(COP(=O)(N(CCCl)CCCl)N(CCCl)CCCl)cnc1[N+](=O)[O-] [Compound 6]
Measurement: 6.15
//
Molecule: Cn1c(COc2ccc(COP(N)(=O)N(CCCl)CCCl)cc2F)cnc1[N+](=O)[O-] (centres unmarked) [Compound 22]
Measurement: 6.15
//
Molecule: CN(CCCl)P(=O)(OCc1c(F)c(F)c(OCc2ncc([N+](=O)[O-])n2C)c(F)c1F)N(C)CCCl [Compound 17]
Measurement: 6.00
//
Molecule: Cn1c(COP(=O)(NCCCl)NCCCl)cnc1[N+](=O)[O-] [Compound 36]
Measurement: 6.06
//
Molecule: O=[N+]([O-])c1ccc(COP(=O)(NCCCCNP(=O)(OCc2ccc([N+](=O)[O-])o2)N(CCCl)CCCl)N(CCCl)CCCl)o1 (centres unmarked) [Compound 20]
Measurement: 6.00

---

system: H460 lung carcinoma spheroids; experiment: Spheroid model, clonogenic survival; conditions: Homo sapiens, NCI-H460, 2 h, read-out: IC90 H460 Spheroid 10% O2
Reported IC90 by item:

Compound: Cn1c(COP(N)(=O)N(CCCl)CCCl)cnc1[N+](=O)[O-] (stereo not drawn) [Compound 1]
IC90: > 100 µM
--
Compound: Nc1n[n+]([O-])c2ccccc2[n+]1[O-] [Tirapazamine, reference compound]
IC90: > 200 µM
--
Compound: Cn1c(COP(=O)(NCCCl)NCCCl)cnc1[N+](=O)[O-] [Compound 36]
IC90: > 100 µM

---

Reported pIC50 by item:
tested on: NCI-H460 cells; assay: Antiproliferation assay - oxygen dependence; type: cell-based, human; conditions: Homo sapiens, NCI-H460, read-out: IC50 in H460 cells, Air
pIC50: −log10 of the molar value.

Molecule: Cn1c(COP2(=O)N(CCBr)CCN2CCBr)cnc1[N+](=O)[O-]
Test Target: NCI-H460 cells
pIC50: < 4.00

Molecule: O=[N+]([O-])c1ccc(COP(=O)(NCCBr)NCCBr)o1
Test Target: NCI-H460 cells
pIC50: < 6.00

Molecule: CC(C)(OP(N)(=O)N(CCCl)CCCl)c1ccc([N+](=O)[O-])cc1 (stereo not drawn)
Test Target: NCI-H460 cells
pIC50: < 4.00

Ref: patent US8507464B2
